# System: Bronchial cells
# Assay details: Apical disappearance assay (epithelial absorption)
# Format: in vitro ADME
# Experimental context: relative to amiloride
Quantity kind: Fold Decrease in Apical Absorption (Relative to Amiloride)

Reference set (2 entries):
Challenge: Please report the recorded Fold Decrease in Apical Absorption (Relative to Amiloride) for NC(=NCc1ccccc1)NC(=O)c1nc(Cl)c(N)nc1N [Benzamil] .
Response given: 0.3

Challenge: Please report the recorded Fold Decrease in Apical Absorption (Relative to Amiloride) for N=C(NCCCCc1ccc(OCCN(CCCc2ccccc2)C[C@H](O)[C@@H](O)[C@H](O)[C@H](O)CO)cc1)NC(=O)c1nc(Cl)c(N)nc1N [Compound 5] .
Response given: 10.0

I: N=C(N)NCCOc1ccc(CCCCNC(=N)NC(=O)c2nc(Cl)c(N)nc2N)cc1 [Compound 2]
II: NC(=Nc1ccccc1)NC(=O)c1nc(Cl)c(N)nc1N [Phenamil, reference compound]
Challenge: Please state the entry with greater Fold Decrease in Apical Absorption (Relative to Amiloride) among I and II . // output: label of the selected item
Response given: I
(I: 10.0, II: 0.2)

----------
# Tested on: Bronchial cells
# Assay details: Apical disappearance assay (epithelial absorption)
# Format: in vitro ADME
# Experimental context: apical surface, initial concentration 10 μM
Quantity kind: Epithelial Uptake Rate (nM/cm^2/min)

Challenge: Please report the recorded Epithelial Uptake Rate for N=C(NCCCCc1ccc(OCCN(CCCc2ccccc2)C[C@H](O)[C@@H](O)[C@H](O)[C@H](O)CO)cc1)NC(=O)c1nc(Cl)c(N)nc1N [Compound 5] .
Response given: 0.2

1: N=C(N)NCCOc1ccc(CCCCNC(=N)NC(=O)c2nc(Cl)c(N)nc2N)cc1 [Compound 2]
2: NC(=NCc1ccccc1)NC(=O)c1nc(Cl)c(N)nc1N [Benzamil]
3: N=C(N)NC(=O)c1nc(Cl)c(N)nc1N [Amiloride, reference compound]
Challenge: Arrange the 3 entries by Epithelial Uptake Rate so the values rise. API: response body holds the labels in the requested order.
Response given: 1, 3, 2
(1: 0.2 nM/cm^2/min, 3: 2 nM/cm^2/min, 2: 6.6 nM/cm^2/min)

----------
# System under test: airway epithelial sodium currents (epithelial sodium channel, ENaC) (UniProt A0A8I3MKE6+A0A8I3Q679+Q95165)
# Assay details: Sodium channel blocking activity: short circuit current (ISC) in airway epithelial monolayers in Ussing chambers
# Experimental context: relative to amiloride
Quantity kind: Fold Increase in Potency (Relative to Amiloride)

I: N=C(NCCCCc1ccc(OCC(O)CO)cc1)NC(=O)c1nc(Cl)c(N)nc1N (stereo not drawn)
II: NC(=Nc1ccccc1)NC(=O)c1nc(Cl)c(N)nc1N [Phenamil, reference compound]
III: N=C(NCCCCc1ccc(OCCN(CCCc2cccc3ccccc23)C[C@H](O)[C@@H](O)[C@H](O)[C@H](O)CO)cc1)NC(=O)c1nc(Cl)c(N)nc1N
Challenge: Parameters: sort_field (Fold Increase in Potency (Relative to Amiloride)), sort_dir (desc). API: response body holds the labels in the requested order.
Response given: III, I, II

----------
# System under test: airway epithelial sodium currents (epithelial sodium channel, ENaC) (UniProt A0A8I3MKE6+A0A8I3Q679+Q95165)
# Assay details: Sodium channel blocking activity: short circuit current (ISC) in airway epithelial monolayers in Ussing chambers
# Experimental context: read-out: Potency of Sodium Channel Blockade (IC50); lumenal addition; airway epithelial monolayers (human, dog, sheep or rodent cells, not specified)
Quantity kind: IC50 (nM)

Reference set (3 entries):
Challenge: Please report the recorded IC50 for N=C(NCCCCc1ccc(OCC(O)CO)cc1)NC(=O)c1nc(Cl)c(N)nc1N (stereo not shown) .
Response given: 7.4

Challenge: Please report the recorded IC50 for "N=C(N)NCCCC[C@@H](N)C(=O)NCCCN(CCCNC(=O)[C@H](N)CCCCNC(=N)N)CCOc1ccc(CCCCNC(=N)NC(=O)c2nc(Cl)c(N)nc2N)cc1" .
Response given: 3.2

Challenge: Please report the recorded IC50 for "N=C(N)NCCOc1ccc(CCCCNC(=N)NC(=O)c2nc(Cl)c(N)nc2N)cc1" .
Response given: 10.2

P: NC(=NCc1ccccc1)NC(=O)c1nc(Cl)c(N)nc1N
Q: N=C(NCCCCc1ccc(OCCN(CCCc2ccccc2)C[C@H](O)[C@@H](O)[C@H](O)[C@H](O)CO)cc1)NC(=O)c1nc(Cl)c(N)nc1N
Challenge: Dear colleague, could you let me know whether P or Q has the lower recorded IC50? Thanks. // output: label of the selected item
Response given: Q
(Q: 6.6 nM, P: 46 nM)

I: NC(=Nc1ccccc1)NC(=O)c1nc(Cl)c(N)nc1N [Phenamil, reference compound]
II: N=C(NCCCCc1ccc(OCCN(CCCc2cccc3ccccc23)C[C@H](O)[C@@H](O)[C@H](O)[C@H](O)CO)cc1)NC(=O)c1nc(Cl)c(N)nc1N
Challenge: Dear colleague, could you let me know whether I or II has the lower recorded IC50? Thanks. // output: label of the selected item
Response given: II
(II: 5.9 nM, I: 116 nM)

----------
# System under test: airway epithelial sodium currents (epithelial sodium channel, ENaC) (UniProt A0A8I3MKE6+A0A8I3Q679+Q95165)
# Assay details: Sodium channel blocking activity: short circuit current (ISC) in airway epithelial monolayers in Ussing chambers
# Experimental context: relative to amiloride
Quantity kind: Fold Increase in Potency (Relative to Amiloride)

Challenge: Please report the recorded Fold Increase in Potency (Relative to Amiloride) for N=C(N)NCCOc1ccc(CCCCNC(=N)NC(=O)c2nc(Cl)c(N)nc2N)cc1 [Compound 2] .
Response given: 77

I: N=C(NCCCCc1ccc(OCCN(CCCc2ccccc2)C[C@H](O)[C@@H](O)[C@H](O)[C@H](O)CO)cc1)NC(=O)c1nc(Cl)c(N)nc1N [Compound 5]
II: N=C(N)NCCCC[C@@H](N)C(=O)NCCCN(CCCNC(=O)[C@H](N)CCCCNC(=N)N)CCOc1ccc(CCCCNC(=N)NC(=O)c2nc(Cl)c(N)nc2N)cc1 [Compound 3]
Challenge: Please state the entry with greater Fold Increase in Potency (Relative to Amiloride) among I and II . // output: label of the selected item
Response given: II
(II: 244, I: 118)
